biological target: T1, in vitro misfolded/aggregated human SOD1 (metal-catalyzed oxidation) (human, UniProt P00441 2-154, oxidized by metal-catalyzed oxidation (4 mM ascorbic acid, 0.2 mM CuCl2, 48 hours at 37 C); residues not stated); assay: direct ELISA, oxidized human SOD1 coated at 20 µg/ml
T1 construct: also called Oxidized SOD1; in vitro aggregated human SOD1 dimers
T1 sequence (P00441 2-154 limits assumed): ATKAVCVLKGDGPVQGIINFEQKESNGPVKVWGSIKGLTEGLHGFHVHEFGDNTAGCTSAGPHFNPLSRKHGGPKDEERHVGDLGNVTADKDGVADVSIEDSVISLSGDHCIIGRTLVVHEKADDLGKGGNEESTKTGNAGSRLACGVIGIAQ
Measurement label: pEC50
Interpret pEC50 as the negative base-10 log of the concentration measured in mol/L.

Lab note: measured pEC50 of NI-204.7G5 (antibody, human IgG1, V domains shown) VH: EVQLVESGGGVVQAGGSLRLSCVASGLTFSSYGMHWVRQAPGKGLEWVAVISYDGRSKFYADSVKGRFTISRDNSKNTLYLQMNSLRAEDAAVYYCANARVRDACSGTRCDKFGFYMDVWGKGTTVTVSS VL: SYVLTQPPSVSVSPGQTARITCSGDALPKKYAYWYQQKSGQAPVLVIYEDIKRPSGIPERFSGSSSGTMATLTISGAQVEDEGDYYCYSADRSGNRWAFGGGTKLTVL was 8.30

Kindly review the next binder as well.
Lab note: measured pEC50 of NI-204.67E12 (antibody, human IgG1, V domains shown) VH: EVQLLESGGGLIRPGGSLRLSCAASGFTFSNYAMGWVRQAPGKGLEWVSAISGNGGSTYYGGSVKGRFTISRDKSKNTLYLQMNNLRADDTAVYFCAKLEAVAPTLTLRYFKHWGKGTLVTVSS VL: DIQMTQSPSTLSASVGDRVTITCRASQSISRWLAWYQQRPGRAPDLLIYDASNLESGVPSRFSGSGSGTEFTLTISSLQPGDFATYYCQQYYSYVYTFGQGTKLEIK was 10.22
